System: insulated, electrically stimulated left atrium of the guinea pig
Assay: Therapeutic effect and therapeutic spectrum at the insulated, electrically stimulated left atrium of the guinea pig
Format: cell-based
Details: quotient EC50 decrease/EC50 increase; mean and average deviation
result.type: therapeutic spectrum
When you answer, write just the number.

Request: So what does the record say about therapeutic spectrum for CO[C@H]1[C@@H](O)C[C@H](O[C@H]2[C@@H](O)C[C@H](O[C@H]3[C@@H](O)C[C@H](O[C@H]4CC[C@@]5(C)[C@H](CC[C@@H]6[C@@H]5C[C@H](O)[C@]5(C)[C@@H](C7=CC(=O)OC7)CC[C@]65O)C4)O[C@@H]3C)O[C@@H]2C)O[C@@H]1C [Example 2, 12-Epi-β-methyldigoxin] ?
Response: 8.86

Request: C#CCC1=C([C@H]2CC[C@]3(O)[C@@H]4CC[C@@H]5C[C@@H](O[C@H]6C[C@H](O)[C@H](O[C@H]7C[C@H](O)[C@H](O[C@H]8C[C@H](O)[C@H](OC)[C@@H](C)O8)[C@@H](C)O7)[C@@H](C)O6)CC[C@]5(C)[C@H]4C[C@H](O)[C@]23C)COC1=O [Example 26, 22-Propargyl-12-epi-β-methyldigoxin] , same question.
Response: 3.94

----------
Tested on: insulated, electrically stimulated left atrium of the guinea pig
Test: Therapeutic effect and therapeutic spectrum at the insulated, electrically stimulated left atrium of the guinea pig
Assay type: cell-based
Settings: quotient EC50 decrease/EC50 increase; mean and average deviation
Source text: Comparison of the therapeutic spectrum of various cardioactive glycosides was undertaken, employing electrical stimulation of the insulated left atrium of guinea pigs. […] When a constant contraction amplitude has set in, the calcium concentration was reduced from 1.8 to 0.45 mVal. The initial tension was adjusted to 1 g at the start of the test; if necessary, it was adjusted after the readjustment to a solution poor in calcium, however, no longer changed during the further course of the experiment. […]
Provide the recorded therapeutic spectrum for the entries that follow.
Please respond with just the number, no unit label.

Request: Could you share which therapeutic spectrum value was measured for CO[C@H]1[C@@H](O)C[C@H](O[C@H]2[C@@H](O)C[C@H](O[C@H]3[C@@H](O)C[C@H](O[C@H]4CC[C@@]5(C)[C@H](CC[C@@H]6[C@@H]5C[C@H](O)[C@]5(C)[C@@H](C7=C(C)C(=O)OC7)CC[C@]65O)C4)O[C@@H]3C)O[C@@H]2C)O[C@@H]1C [Example 12, 22-Methyl-12-epi-β-methyldigoxin] ?
Response: 5.15

Request: What about this compound? CO[C@H]1[C@@H](O)C[C@H](O[C@H]2[C@@H](O)C[C@H](O[C@H]3[C@@H](O)C[C@H](O[C@H]4CC[C@@]5(C)[C@H](CC[C@@H]6[C@@H]5C[C@@H](O)[C@]5(C)[C@@H](C7=CC(=O)OC7)CC[C@]65O)C4)O[C@@H]3C)O[C@@H]2C)O[C@@H]1C [methyldigoxina., β-methyldigoxin, reference compound]
Response: 3.06

Request: Record: CCC1=C([C@H]2CC[C@]3(O)[C@@H]4CC[C@@H]5C[C@@H](O[C@H]6C[C@H](O)[C@H](O[C@H]7C[C@H](O)[C@H](O[C@H]8C[C@H](O)[C@H](OC)[C@@H](C)O8)[C@@H](C)O7)[C@@H](C)O6)CC[C@]5(C)[C@H]4C[C@H](O)[C@]23C)COC1=O [Example 13, 22-Ethyl-12-epi-β-methyldigoxin]
Response: 7.10

Request: And the next one, CO[C@H]1[C@@H](O)C[C@H](O[C@H]2[C@@H](O)C[C@H](O[C@H]3[C@@H](O)C[C@H](O[C@H]4CC[C@@]5(C)[C@H](CC[C@@H]6[C@@H]5C[C@H](O)[C@]5(C)[C@@H](C7=C(C(C)C)C(=O)OC7)CC[C@]65O)C4)O[C@@H]3C)O[C@@H]2C)O[C@@H]1C [Example 14, 22-Isopropyl-12-epi-β-methyldigoxin] ?
Response: 3.08

Request: Try the compound CC(=O)O[C@H]1C[C@H](O[C@H]2[C@@H](O)C[C@H](O[C@H]3[C@@H](O)C[C@H](O[C@H]4CC[C@@]5(C)[C@H](CC[C@@H]6[C@@H]5C[C@H](O)[C@]5(C)[C@@H](C7=CC(=O)OC7)CC[C@]65O)C4)O[C@@H]3C)O[C@@H]2C)O[C@H](C)[C@H]1O [Example 5, α-Acetyl-12-epi-digoxin]
Response: 3.40

Request: Consider next the compound CCC1=C([C@H]2CC[C@]3(O)[C@@H]4CC[C@@H]5C[C@@H](O[C@H]6C[C@H](O)[C@H](O[C@H]7C[C@H](O)[C@H](O[C@H]8C[C@H](O)[C@H](O)[C@@H](C)O8)[C@@H](C)O7)[C@@H](C)O6)CC[C@]5(C)[C@H]4C[C@H](O)[C@]23C)COC1=O [Example 9, 22-Ethyl-12-epi-digoxin] in the same way.
Response: 6.39

----------
Test system: insulated, electrically stimulated left atrium of the guinea pig
Experiment: Therapeutic effect and therapeutic spectrum at the insulated, electrically stimulated left atrium of the guinea pig
Type: cell-based
Conditions: Cavia porcellus; increase of the amplitude to 50% of the difference between normal and reduced calcium content; mean and average deviation; read-out: EC50 increase
result.type: EC50
Output should be the measured figure followed by the unit it is expressed in.

Request: Query (compound): C#CCC1=C([C@H]2CC[C@]3(O)[C@@H]4CC[C@@H]5C[C@@H](O[C@H]6C[C@H](O)[C@H](O[C@H]7C[C@H](O)[C@H](O[C@H]8C[C@H](O)[C@H](OC)[C@@H](C)O8)[C@@H](C)O7)[C@@H](C)O6)CC[C@]5(C)[C@H]4C[C@H](O)[C@]23C)COC1=O [Example 26, 22-Propargyl-12-epi-β-methyldigoxin] ; field requested: EC50
Response: 4.46 µM

Request: Now consider CO[C@H]1[C@@H](O)C[C@H](O[C@H]2[C@@H](O)C[C@H](O[C@H]3[C@@H](O)C[C@H](O[C@H]4CC[C@@]5(C)[C@H](CC[C@@H]6[C@@H]5C[C@H](O)[C@]5(C)[C@@H](C7=C(C)C(=O)OC7)CC[C@]65O)C4)O[C@@H]3C)O[C@@H]2C)O[C@@H]1C [Example 12, 22-Methyl-12-epi-β-methyldigoxin] and answer again.
Response: 3.55 µM

----------
Task for the reader: assign each of the following compounds its reported log10(EC50).
System: insulated, electrically stimulated left atrium of the guinea pig
Experiment: Therapeutic effect and therapeutic spectrum at the insulated, electrically stimulated left atrium of the guinea pig
Type: cell-based
Conditions: Cavia porcellus; increase of the amplitude to 50% of the difference between normal and reduced calcium content; mean and average deviation; read-out: EC50 increase
Values reflect log10 of reported EC50 (nM).

Request: Query: log10(EC50); subject: CCC1=C([C@H]2CC[C@]3(O)[C@@H]4CC[C@@H]5C[C@@H](O[C@H]6C[C@H](O)[C@H](O[C@H]7C[C@H](O)[C@H](O[C@H]8C[C@H](O)[C@H](OC)[C@@H](C)O8)[C@@H](C)O7)[C@@H](C)O6)CC[C@]5(C)[C@H]4C[C@H](O)[C@]23C)COC1=O [Example 13, 22-Ethyl-12-epi-β-methyldigoxin]
Response: 3.77

Request: Then CO[C@H]1[C@@H](O)C[C@H](O[C@H]2[C@@H](O)C[C@H](O[C@H]3[C@@H](O)C[C@H](O[C@H]4CC[C@@]5(C)[C@H](CC[C@@H]6[C@@H]5C[C@H](O)[C@]5(C)[C@@H](C7=C(C(C)C)C(=O)OC7)CC[C@]65O)C4)O[C@@H]3C)O[C@@H]2C)O[C@@H]1C [Example 14, 22-Isopropyl-12-epi-β-methyldigoxin] ?
Response: 4.33

Request: Please give the result for CO[C@H]1[C@@H](O)C[C@H](O[C@H]2[C@@H](O)C[C@H](O[C@H]3[C@@H](O)C[C@H](O[C@H]4CC[C@@]5(C)[C@H](CC[C@@H]6[C@@H]5C[C@H](O)[C@]5(C)[C@@H](C7=CC(=O)OC7)CC[C@]65O)C4)O[C@@H]3C)O[C@@H]2C)O[C@@H]1C [Example 2, 12-Epi-β-methyldigoxin] too.
Response: 2.50

Request: # repeat for C[C@H]1O[C@@H](O[C@H]2[C@@H](O)C[C@H](O[C@H]3[C@@H](O)C[C@H](O[C@H]4CC[C@@]5(C)[C@H](CC[C@@H]6[C@@H]5C[C@H](O)[C@]5(C)[C@@H](C7=CC(=O)OC7)CC[C@]65O)C4)O[C@@H]3C)O[C@@H]2C)C[C@H](O)[C@@H]1O [Example 1, 12-Epi-digoxin]
Response: 2.75

Request: Repeat with CC(=O)O[C@H]1C[C@H]2[C@@H](CC[C@@H]3C[C@@H](O[C@H]4C[C@H](O)[C@H](O[C@H]5C[C@H](O)[C@H](O[C@H]6C[C@H](O)[C@H](O)[C@@H](C)O6)[C@@H](C)O5)[C@@H](C)O4)CC[C@@]32C)[C@@]2(O)CC[C@H](C3=CC(=O)OC3)[C@@]12C [Example 7, 12-Acetyl-12-epi-digoxin]
Response: 3.46

Request: Similarly, CC(=O)O[C@H]1C[C@H](O[C@H]2[C@@H](O)C[C@H](O[C@H]3[C@@H](O)C[C@H](O[C@H]4CC[C@@]5(C)[C@H](CC[C@@H]6[C@@H]5C[C@H](O)[C@]5(C)[C@@H](C7=CC(=O)OC7)CC[C@]65O)C4)O[C@@H]3C)O[C@@H]2C)O[C@H](C)[C@H]1O [Example 5, α-Acetyl-12-epi-digoxin] ?
Response: 2.93
